Reference source: paper PMC9100673

biological target: human serum albumin (HSA) (Homo sapiens); construct: purchased Sigma (St. Louis, MO, USA); assay: HSA fluorescence quenching (steady-state fluorescence titration); type: binding; conditions: 25 °C
Measured Metric: Kq, bimolecular quenching rate constant (M⁻¹ s⁻¹)
All answers are understood in M⁻¹ s⁻¹, so give the number only.

In the examples that follow, each entry is paired with its recorded Kq, bimolecular quenching rate constant.
- Compound: "O=C(N/N=C/c1cccc2cc3ccccc3nc12)c1ccc(Br)cc1 [3d]"
  Unit Text: "M⁻¹ s⁻¹"
  Kq, bimolecular quenching rate constant: "1.16e+13"
- Compound: "O=C(N/N=C/c1cccc2cc3ccccc3nc12)c1ccc(F)cc1 [3b]"
  Unit Text: "M⁻¹ s⁻¹"
  Kq, bimolecular quenching rate constant: "1.51e+13"
- Compound: "O=C(N/N=C/c1cccc2cc3ccccc3nc12)c1ccc(Cl)cc1 [3c]"
  Unit Text: "M⁻¹ s⁻¹"
  Kq, bimolecular quenching rate constant: "2.29e+13"

Now, please, on to the next compound.
q: Check the records and state Kq, bimolecular quenching rate constant for O=C(N/N=C/c1cccc2cc3ccccc3nc12)c1ccccc1 [3a]
a: 2.67e+13

----------
molecular target: human serum albumin (HSA) (Homo sapiens, UniProt P02768); construct: purchased Sigma (St. Louis, MO, USA); assay: HSA fluorescence quenching (steady-state fluorescence titration); assay type: binding; conditions: van't Hoff plot, 25–35 °C
Sequence (P02768 25-609): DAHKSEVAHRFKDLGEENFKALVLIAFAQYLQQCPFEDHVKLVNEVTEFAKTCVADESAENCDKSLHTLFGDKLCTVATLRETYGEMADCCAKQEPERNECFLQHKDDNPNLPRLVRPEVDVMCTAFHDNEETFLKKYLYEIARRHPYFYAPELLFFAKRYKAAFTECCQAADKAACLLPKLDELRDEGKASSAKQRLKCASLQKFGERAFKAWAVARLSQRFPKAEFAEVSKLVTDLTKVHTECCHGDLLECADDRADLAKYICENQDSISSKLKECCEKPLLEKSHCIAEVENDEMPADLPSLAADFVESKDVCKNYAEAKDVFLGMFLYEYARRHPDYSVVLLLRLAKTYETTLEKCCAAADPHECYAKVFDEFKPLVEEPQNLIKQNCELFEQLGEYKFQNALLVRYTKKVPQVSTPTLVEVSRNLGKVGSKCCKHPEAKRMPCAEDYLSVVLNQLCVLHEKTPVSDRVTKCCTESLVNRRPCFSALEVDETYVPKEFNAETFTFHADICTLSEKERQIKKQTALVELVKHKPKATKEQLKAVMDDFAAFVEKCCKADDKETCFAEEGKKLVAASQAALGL
ΔS for assorted compounds

- Compound: "O=C(N/N=C/c1cccc2cc3ccccc3nc12)c1ccc(Br)cc1 [3d]"
  Experimental System: "human serum albumin (HSA) (Homo sapiens, UniProt P02768)"
  Result: "−352.39 ×10^−3 kJ mol^−1 K^−1"
- Compound: "O=C(N/N=C/c1cccc2cc3ccccc3nc12)c1ccccc1 [3a]"
  Experimental System: "human serum albumin (HSA) (Homo sapiens, UniProt P02768)"
  Result: "−33.80 ×10^−3 kJ mol^−1 K^−1"
- Compound: "O=C(N/N=C/c1cccc2cc3ccccc3nc12)c1ccc(Cl)cc1 [3c]"
  Experimental System: "human serum albumin (HSA) (Homo sapiens, UniProt P02768)"
  Result: "568.32 ×10^−3 kJ mol^−1 K^−1"

q: For the compound O=C(N/N=C/c1cccc2cc3ccccc3nc12)c1ccc(F)cc1 [3b] , give its measured ΔS value.
a: −43.24 ×10^−3 kJ mol^−1 K^−1

----------
target: human serum albumin (HSA) (Homo sapiens); construct: purchased Sigma (St. Louis, MO, USA); experiment: HSA fluorescence quenching (steady-state fluorescence titration); type: binding; details: 25 °C; HSA 4 μM, pH 7.4
Measured Metric: KSV, Stern–Volmer quenching constant (M⁻¹)
# number only, unit M⁻¹ dropped from output

- Smi: "O=C(N/N=C/c1cccc2cc3ccccc3nc12)c1ccc(F)cc1"
  Experimental System: "human serum albumin (HSA) (Homo sapiens)"
  Unit Text: "M⁻¹"
  KSV, Stern–Volmer quenching constant: 151000
- Smi: "O=C(N/N=C/c1cccc2cc3ccccc3nc12)c1ccc(Cl)cc1"
  Experimental System: "human serum albumin (HSA) (Homo sapiens)"
  Unit Text: "M⁻¹"
  KSV, Stern–Volmer quenching constant: 229000
- Smi: "O=C(N/N=C/c1cccc2cc3ccccc3nc12)c1ccc(Br)cc1"
  Experimental System: "human serum albumin (HSA) (Homo sapiens)"
  Unit Text: "M⁻¹"
  KSV, Stern–Volmer quenching constant: 116000

--- query ---
q: For O=C(N/N=C/c1cccc2cc3ccccc3nc12)c1ccccc1 , write its KSV, Stern–Volmer quenching constant.
a: 267000

----------
n, number of binding sites listing for selected molecules.
biological target: human serum albumin (HSA) (Homo sapiens, UniProt P02768); construct: purchased Sigma (St. Louis, MO, USA); assay: HSA fluorescence quenching (steady-state fluorescence titration); format: binding; conditions: 30 °C
Provide a numeric answer; units are not to be included.

As a guide, the following entries are already answered.
- Smi: "O=C(N/N=C/c1cccc2cc3ccccc3nc12)c1ccccc1"
  Number: 1.054
- Smi: "O=C(N/N=C/c1cccc2cc3ccccc3nc12)c1ccc(Br)cc1"
  Number: 0.917
- Smi: "O=C(N/N=C/c1cccc2cc3ccccc3nc12)c1ccc(Cl)cc1"
  Number: 0.925

For the next question, use this molecule.
q: Report measured n, number of binding sites on human serum albumin (HSA) (Homo sapiens, UniProt P02768); entry: O=C(N/N=C/c1cccc2cc3ccccc3nc12)c1ccc(F)cc1
a: 1.061

----------
biological target: hTopo IIα (Homo sapiens, UniProt P11388); experiment: Topo IIα kDNA decatenation assay; assay type: biochemical; details: 25, 50 and 100 μM
Sequence (P11388 whole entry): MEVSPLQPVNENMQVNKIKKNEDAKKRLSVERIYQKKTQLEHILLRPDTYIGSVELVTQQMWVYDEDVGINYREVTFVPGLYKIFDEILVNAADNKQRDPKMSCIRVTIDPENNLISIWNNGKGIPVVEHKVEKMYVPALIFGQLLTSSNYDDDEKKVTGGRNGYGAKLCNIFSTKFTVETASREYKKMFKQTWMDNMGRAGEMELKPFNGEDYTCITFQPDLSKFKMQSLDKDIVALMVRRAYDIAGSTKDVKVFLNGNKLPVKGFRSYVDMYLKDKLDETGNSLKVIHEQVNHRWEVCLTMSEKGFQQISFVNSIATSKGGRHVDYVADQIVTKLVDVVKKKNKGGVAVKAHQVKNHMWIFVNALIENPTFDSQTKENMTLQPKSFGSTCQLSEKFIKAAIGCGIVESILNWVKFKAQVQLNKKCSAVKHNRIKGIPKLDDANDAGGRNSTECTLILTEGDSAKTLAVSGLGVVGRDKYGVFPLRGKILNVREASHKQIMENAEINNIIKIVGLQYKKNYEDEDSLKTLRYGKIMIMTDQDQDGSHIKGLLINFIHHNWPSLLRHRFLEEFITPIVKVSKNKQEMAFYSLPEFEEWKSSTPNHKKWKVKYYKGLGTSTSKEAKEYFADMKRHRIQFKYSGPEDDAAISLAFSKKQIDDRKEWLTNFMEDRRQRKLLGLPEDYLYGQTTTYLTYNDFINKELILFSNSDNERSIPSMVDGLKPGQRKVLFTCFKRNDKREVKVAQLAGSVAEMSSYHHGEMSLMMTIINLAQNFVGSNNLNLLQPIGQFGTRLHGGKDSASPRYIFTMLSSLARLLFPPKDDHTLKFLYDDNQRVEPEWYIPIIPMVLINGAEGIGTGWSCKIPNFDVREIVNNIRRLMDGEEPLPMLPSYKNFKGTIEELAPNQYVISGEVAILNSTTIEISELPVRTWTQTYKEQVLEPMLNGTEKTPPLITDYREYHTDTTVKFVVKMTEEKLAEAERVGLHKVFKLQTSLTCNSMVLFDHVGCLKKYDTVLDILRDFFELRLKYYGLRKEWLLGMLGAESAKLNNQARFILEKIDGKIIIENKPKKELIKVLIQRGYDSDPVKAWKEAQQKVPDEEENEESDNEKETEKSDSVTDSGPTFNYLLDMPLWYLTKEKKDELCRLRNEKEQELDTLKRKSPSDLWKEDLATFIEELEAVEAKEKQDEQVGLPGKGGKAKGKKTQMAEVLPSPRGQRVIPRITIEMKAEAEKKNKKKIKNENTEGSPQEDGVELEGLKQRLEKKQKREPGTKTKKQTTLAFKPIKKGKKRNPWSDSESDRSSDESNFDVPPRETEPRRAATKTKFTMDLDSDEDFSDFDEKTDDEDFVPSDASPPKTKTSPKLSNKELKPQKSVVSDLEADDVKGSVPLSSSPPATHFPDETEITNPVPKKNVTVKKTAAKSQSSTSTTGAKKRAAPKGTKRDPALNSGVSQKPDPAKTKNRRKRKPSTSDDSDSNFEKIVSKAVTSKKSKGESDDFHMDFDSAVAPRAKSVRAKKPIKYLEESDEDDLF
Measured Metric: inhibition of decatenation activity of Topo IIα

- Smi: "O=C(N/N=C/c1cccc2cc3ccccc3nc12)c1ccc(Br)cc1"
  Result: "partial inhibition"
- Smi: "O=C(N/N=C/c1cccc2cc3ccccc3nc12)c1ccc(Cl)cc1"
  Result: "partial inhibition"

----------
biological target: human serum albumin (HSA) (Homo sapiens, UniProt P02768); construct: purchased Sigma (St. Louis, MO, USA); experiment: HSA fluorescence quenching (steady-state fluorescence titration); format: binding; details: 35 °C; HSA 4 μM, pH 7.4
Measured Metric: KSV, Stern–Volmer quenching constant (M⁻¹)
Please reply with the bare figure in M⁻¹ and do not write the unit itself.

Solved cases below.
- Molecule: "O=C(N/N=C/c1cccc2cc3ccccc3nc12)c1ccc(Cl)cc1 [3c]"
  KSV, Stern–Volmer quenching constant [M⁻¹]: 262000
- Molecule: "O=C(N/N=C/c1cccc2cc3ccccc3nc12)c1ccc(Br)cc1 [3d]"
  KSV, Stern–Volmer quenching constant [M⁻¹]: 242000
- Molecule: "O=C(N/N=C/c1cccc2cc3ccccc3nc12)c1ccccc1 [3a]"
  KSV, Stern–Volmer quenching constant [M⁻¹]: 261000

// below: KSV, Stern–Volmer quenching constant requested for another molecule
q: Consider the molecule O=C(N/N=C/c1cccc2cc3ccccc3nc12)c1ccc(F)cc1 [3b] . State its measured KSV, Stern–Volmer quenching constant.
a: 137000

----------
Entries and their melting point

In the examples that follow, each entry is paired with its recorded melting point.
- Smi: "O=C(N/N=C/c1cccc2cc3ccccc3nc12)c1ccc(Br)cc1"
  melting point: "269 to 270 °C"
- Smi: "O=C(N/N=C/c1ccc(F)cc1)c1cccc2cc3ccccc3nc12"
  melting point: "255 to 256 °C"
- Smi: "O=C(N/N=C/c1cccc2cc3ccccc3nc12)c1ccc(Cl)cc1"
  melting point: "266 to 267 °C"
- Smi: "O=C(N/N=C/c1ccc(Cl)cc1)c1cccc2cc3ccccc3nc12"
  melting point: "243 to 244 °C"
- Smi: "O=C(N/N=C/c1cccc2cc3ccccc3nc12)c1ccccc1"
  melting point: "235 to 236 °C"

q: Look up and state reported melting point for O=C(N/N=C/c1cccc2cc3ccccc3nc12)c1ccc(F)cc1
a: 229 to 230 °C

q: Output melting point of O=C(N/N=C/c1ccc(Br)cc1)c1cccc2cc3ccccc3nc12
a: 240 to 241 °C

----------
test system: A549 cells; experiment: MTT assay, metabolic activity of A549 cells; type: cell-based, human; details: Homo sapiens, A549, 48 h
Measured Metric: pIC50
Friendly reminder that pIC50 comes from taking -log10 of the concentration in mol/L.

- Molecule: "O=C(N/N=C/c1cccc2cc3ccccc3nc12)c1ccccc1 [3a]"
  Measured Metric: "pIC50"
  Number: 4.37
- Molecule: "O=C(N/N=C/c1cccc2cc3ccccc3nc12)c1ccc(Cl)cc1 [3c]"
  Measured Metric: "pIC50"
  Number: 4.35
- Molecule: "O=C(N/N=C/c1cccc2cc3ccccc3nc12)c1ccc(Br)cc1 [3d]"
  Measured Metric: "pIC50"
  Number: 4.26
- Molecule: "O=C(N/N=C/c1cccc2cc3ccccc3nc12)c1ccc(F)cc1 [3b]"
  Measured Metric: "pIC50"
  Number: 4.43

q: Annotate the molecule COc1cccc2c1C(=O)c1c(O)c3c(c(O)c1C2=O)C[C@@](O)(C(=O)CO)C[C@@H]3O[C@H]1C[C@H](N)[C@H](O)[C@H](C)O1 [DOXO, doxorubicin, reference compound] with its measured pIC50.
a: 5.30

----------
biological target: human serum albumin (HSA) (Homo sapiens, UniProt P02768); construct: purchased Sigma (St. Louis, MO, USA); assay: HSA fluorescence quenching (steady-state fluorescence titration); type: binding; details: 35 °C
Measured Metric: n, number of binding sites
Answer with a number only.

The examples below pair each entry with its known result.
- Smi: "O=C(N/N=C/c1cccc2cc3ccccc3nc12)c1ccc(Br)cc1"
  n, number of binding sites: 0.846
- Smi: "O=C(N/N=C/c1cccc2cc3ccccc3nc12)c1ccc(Cl)cc1"
  n, number of binding sites: 1.030
- Smi: "O=C(N/N=C/c1cccc2cc3ccccc3nc12)c1ccccc1"
  n, number of binding sites: 1.023

Now for the molecule whose n, number of binding sites we want.
q: Supply n, number of binding sites value. Item: O=C(N/N=C/c1cccc2cc3ccccc3nc12)c1ccc(F)cc1
a: 1.039
